Values from PubChem BioAssay (Tox21)

target_system: Cytochrome P450 2C19 (Homo sapiens)
test_details: Cytochrome P450 Family 2 Subfamily C Member 19 (CYP2C19) small molecule antagonists: luciferase reporter qHTS assay (AID 1671197); also: nearly all actives have a fitted effect of over 65% in size
experimental_setup: P450-Glo CYP2C19 enzyme, luciferin luminescence, 1 h; series mostly up to 115 µM
Records with an inconclusive call do not appear. Activity calls are given as the source filed them. Calls follow the shape of the dose curve; as a rule, active = well fitted inhibition curve with a large enough effect in the repeat runs; inconclusive = weak or mixed curves; inactive = no such curve, though single readings can be large or run the other way.
Outcome codes: 1 (yes) for active, 0 (no) for inactive

molecule: CC(C)OC(C)C
target_system: Cytochrome P450 2C19 (Homo sapiens)
label: 0 (no)
--
molecule: CCOc1ccccc1N
target_system: Cytochrome P450 2C19 (Homo sapiens)
label: 1 (yes)
--
molecule: Cc1cc(NS(=O)(=O)c2ccc(N)cc2)nc(C)n1
target_system: Cytochrome P450 2C19 (Homo sapiens)
label: 0 (no)
--
molecule: CS(=O)(=O)c1ccc([C@@H](O)[C@@H](CF)NC(=O)C(Cl)Cl)cc1
target_system: Cytochrome P450 2C19 (Homo sapiens)
label: 1 (yes)
--
molecule: CCc1nnc(NS(=O)(=O)c2ccc(N)cc2)s1
target_system: Cytochrome P450 2C19 (Homo sapiens)
label: 0 (no)
--
molecule: OCC(CBr)(CBr)CBr
target_system: Cytochrome P450 2C19 (Homo sapiens)
label: 0 (no)
--
molecule: NS(=O)(=O)c1cc(-c2nn[nH]n2)c(NCc2cccs2)cc1Cl
target_system: Cytochrome P450 2C19 (Homo sapiens)
label: 0 (no)
--
molecule: CCCCCCCOC(=O)CCC
target_system: Cytochrome P450 2C19 (Homo sapiens)
label: 1 (yes)
--
molecule: CCN(O)CC
target_system: Cytochrome P450 2C19 (Homo sapiens)
label: 0 (no)
--
molecule: CC1(C)S[C@@H]2[C@H](NC(=O)C(C(=O)O)c3ccccc3)C(=O)N2[C@H]1C(=O)O (stereo partly drawn)
target_system: Cytochrome P450 2C19 (Homo sapiens)
label: 0 (no)
--
molecule: CCCCCCOc1ccc(N)cc1
target_system: Cytochrome P450 2C19 (Homo sapiens)
label: 1 (yes)
--
molecule: CN1[C@@H]2CC[C@H]1CC(OC(=O)c1c[nH]c3ccccc13)C2 (stereo partly drawn)
target_system: Cytochrome P450 2C19 (Homo sapiens)
label: 0 (no)
--
molecule: COc1nc(C)nc(NC(=O)NS(=O)(=O)c2ccccc2OCCCl)n1
target_system: Cytochrome P450 2C19 (Homo sapiens)
label: 0 (no)

---

test_details: qHTS assay to test for compound auto fluorescence at 460 nm (blue) in HEK293 cells (AID 720678); also: % is scaled to controls: 0 for no effect and ±100 for the full control effect
experimental_setup: blue autofluorescence 405/460 nm; series mostly up to 91.3 µM
Active and inactive are the calls of the source. Calls come from the whole dose curve; as a rule, active = well fitted curve in the direction sought with a large enough effect in the repeat runs; inconclusive = weak or mixed curves; inactive = flat fitted curve, though single readings scatter.

mol_smiles: CCOc1ccc(NS(=O)(=O)c2ccc(N)cc2)nn1
fluorescence, % of triamterene: inactive
--
mol_smiles: O=Cc1ccc(F)c(Br)c1
fluorescence, % of triamterene: inactive
--
mol_smiles: Cc1c(-c2ccccc2)oc2c(C(=O)OCCN3CCCCC3)cccc2c1=O
fluorescence, % of triamterene: -0.209% [at 18.6 µM] (inactive)
--
mol_smiles: COC(=O)N[C@H](C(=O)N[C@@H](Cc1ccccc1)[C@@H](O)CN(Cc1ccc(-c2ccccn2)cc1)NC(=O)[C@@H](NC(=O)OC)C(C)(C)C)C(C)(C)C
fluorescence, % of triamterene: inactive
--
mol_smiles: O=[N+]([O-])c1nccn1CO[C@@H](CO)[C@H](O)CO
fluorescence, % of triamterene: inactive
--
mol_smiles: CCNCCO
fluorescence, % of triamterene: inactive
